Data origin, for the record: paper PMC8298264

- Tested on: human HL60 cells
- Assay: SWATH-MS proteomics, differential protein representation, akirin2 KO vs WT HL60 cells
- Type: cell-based
- Condition description: KO vs WT HL60 cells; sheet "Under-represented in KO"
Measurement type: Log (Fold Change)
Could you keep your reply to the number by itself?

Log (Fold Change) reading for sp¦Q9H7B2¦RPF2_HUMAN (protein, UniProt Q9H7B2 1-306, looked up) Ribosome production factor 2 …: MDTLDRVVKPKTKRAKRFLEKREPKLNENIKNAMLIKGGNANATVTKVLKDVYALKKPYGVLYKKKNITRPFEDQTSLEFFSKKSDCSLFMFGSHNKKRPNNLVIGRMYDYHVLDMIELGIENFVSLKDIKNSKCPEGTKPMLIFAGDDFDVTEDYRRLKSLLIDFFRGPTVSNIRLAGLEYVLHFTALNGKIYFRSYKLLLKKSGCRTPRIELEEMGPSLDLVLRRTHLASDDLYKLSMKMPKALKPKKKKNISHDTFGTTYGRIHMQKQDLSKLQTRKMKGLKKRPAERITEDHEKKSKRIKKN : -0.3173
